system: LCLC-103H; experiment: relative viability (nuclei count vs DMSO), 5 days (fraction); higher = more cells survive; settings: first compound 1.265 µM
Recorded relative viability, one value per entry.

Compound	relative viability
Clc1ccc(Nc2nnc(Cc3ccncc3)c3ccccc23)cc1 [Vatalanib] + COc1cc2c(Oc3ccc(NC(=O)C4(C(=O)Nc5ccc(F)cc5)CC4)cc3F)ccnc2cc1OCCCN1CCOCC1 [Foretinib] (partner 0.25 µM)	0.739
Clc1ccc(Nc2nnc(Cc3ccncc3)c3ccccc23)cc1 [Vatalanib] + CC(=O)c1c(C)c2cnc(Nc3ccc(N4CCNCC4)cn3)nc2n(C2CCCC2)c1=O [Palbociclib] (partner 0.5 µM)	0.443
COc1cc(N2CCC(C(N)=O)CC2)ccc1Nc1nc(N)c(Cl)c(Nc2ccccc2S(=O)(=O)C(C)C)n1 [HG-5-88-01] + NC(=O)Nc1cc(-c2cccc(F)c2)sc1C(=O)N[C@H]1CCCNC1 [AZD7762] (partner 0.2 µM)	0.828
COc1cc(N2CCC(C(N)=O)CC2)ccc1Nc1nc(N)c(Cl)c(Nc2ccccc2S(=O)(=O)C(C)C)n1 [HG-5-88-01] + Cc1cc(Nc2cc(N3CCN(C)CC3)nc(Sc3ccc(NC(=O)C4CC4)cc3)n2)n[nH]1 [Tozasertib] (partner 0.1 µM)	0.611

---

system: NCI-H2009; assay: relative viability (nuclei count vs DMSO), 5 days (fraction); higher = more cells survive; conditions: first compound 0.4 µM
Label key: Criterion met means relative viability under 1; Criterion not met means relative viability of 1 or more.

Compound	Target or system	Assigned category
COc1cc(N2CCC(C(N)=O)CC2)ccc1Nc1nc(N)c(Cl)c(Nc2ccccc2S(=O)(=O)C(C)C)n1 [HG-5-88-01] + CC1(C)CCC(c2ccc(Cl)cc2)=C(CN2CCN(c3ccc(C(=O)NS(=O)(=O)c4ccc(N[C@H](CCN5CCOCC5)CSc5ccccc5)c(S(=O)(=O)C(F)(F)F)c4)cc3)CC2)C1 [Navitoclax] (partner 0.5 µM)	NCI-H2009	Criterion not met
Clc1ccc(Nc2nnc(Cc3ccncc3)c3ccccc23)cc1 [Vatalanib] + O=C(CCCCCCC(=O)Nc1ccccc1)NO [Vorinostat] (partner 1 µM)	NCI-H2009	Criterion met
Clc1ccc(Nc2nnc(Cc3ccncc3)c3ccccc23)cc1 [Vatalanib] + Cc1nc(NC(=O)N2CCC[C@H]2C(N)=O)sc1-c1ccnc(C(C)(C)C(F)(F)F)c1 [Alpelisib] (partner 2 µM)	NCI-H2009	Criterion not met
COc1cc(N2CCC(C(N)=O)CC2)ccc1Nc1nc(N)c(Cl)c(Nc2ccccc2S(=O)(=O)C(C)C)n1 [HG-5-88-01] + C[C@@H](Oc1cc(-c2cnn(C3CCNCC3)c2)cnc1N)c1c(Cl)ccc(F)c1Cl [Crizotinib] (partner 1 µM)	NCI-H2009	Criterion met
Clc1ccc(Nc2nnc(Cc3ccncc3)c3ccccc23)cc1 [Vatalanib] + COc1cc2c(Oc3ccc(NC(=O)C4(C(=O)Nc5ccc(F)cc5)CC4)cc3F)ccnc2cc1OCCCN1CCOCC1 [Foretinib] (partner 0.25 µM)	NCI-H2009	Criterion not met

---

test system: NCI-H322M; experiment: relative viability (nuclei count vs DMSO), 5 days (fraction); higher = more cells survive; details: first compound 0.04 µM

Compound	relative viability
C[C@@H]1CN(CC(=O)Nc2ccc3c(c2)Cc2cccc(-c4cc(=O)cc(N5CCOCC5)o4)c2S3)C[C@H](C)O1 + NC(=O)Nc1cc(-c2cccc(F)c2)sc1C(=O)N[C@H]1CCCNC1 [AZD7762] (partner 0.2 µM)	0.527
C[C@@H]1CN(CC(=O)Nc2ccc3c(c2)Cc2cccc(-c4cc(=O)cc(N5CCOCC5)o4)c2S3)C[C@H](C)O1 + COc1cc2c(Oc3ccc(NC(=O)C4(C(=O)Nc5ccc(F)cc5)CC4)cc3F)ccnc2cc1OCCCN1CCOCC1 [Foretinib] (partner 0.25 µM)	0.508
COc1cc(N2CCC(C(N)=O)CC2)ccc1Nc1nc(N)c(Cl)c(Nc2ccccc2S(=O)(=O)C(C)C)n1 [HG-5-88-01] + CC1(C)CCC(c2ccc(Cl)cc2)=C(CN2CCN(c3ccc(C(=O)NS(=O)(=O)c4ccc(N[C@H](CCN5CCOCC5)CSc5ccccc5)c(S(=O)(=O)C(F)(F)F)c4)cc3)CC2)C1 [Navitoclax] (partner 0.5 µM)	1.16
COc1cc(N2CCC(C(N)=O)CC2)ccc1Nc1nc(N)c(Cl)c(Nc2ccccc2S(=O)(=O)C(C)C)n1 [HG-5-88-01] + C[C@@H](Oc1cc(-c2cnn(C3CCNCC3)c2)cnc1N)c1c(Cl)ccc(F)c1Cl [Crizotinib] (partner 1 µM)	0.978

---

test system: NCI-H358; experiment: relative viability (nuclei count vs DMSO), 5 days (fraction); higher = more cells survive; conditions: first compound 0.4 µM
Entries and their relative viability

Molecule	relative viability
C[C@@H]1CN(CC(=O)Nc2ccc3c(c2)Cc2cccc(-c4cc(=O)cc(N5CCOCC5)o4)c2S3)C[C@H](C)O1 + CC(=O)c1c(C)c2cnc(Nc3ccc(N4CCNCC4)cn3)nc2n(C2CCCC2)c1=O [Palbociclib] (partner 0.5 µM)	0.12
COc1cc(N2CCC(C(N)=O)CC2)ccc1Nc1nc(N)c(Cl)c(Nc2ccccc2S(=O)(=O)C(C)C)n1 [HG-5-88-01] + Cc1cc(Nc2cc(N3CCN(C)CC3)nc(Sc3ccc(NC(=O)C4CC4)cc3)n2)n[nH]1 [Tozasertib] (partner 0.1 µM)	0.0776
Clc1ccc(Nc2nnc(Cc3ccncc3)c3ccccc23)cc1 [Vatalanib] + Nc1ncn([C@H]2C[C@H](O)[C@@H](CO)O2)c(=O)n1 [Decitabine] (partner 2 µM)	0.246
Clc1ccc(Nc2nnc(Cc3ccncc3)c3ccccc23)cc1 [Vatalanib] + CC(=O)Nc1cccc(-n2c(=O)n(C3CC3)c(=O)c3c(Nc4ccc(I)cc4F)n(C)c(=O)c(C)c32)c1 [Trametinib] (partner 0.02 µM)	0.151

---

test system: H3255; assay: relative viability (nuclei count vs DMSO), 5 days (fraction); higher = more cells survive; conditions: first compound 0.04 µM
Let's look at some compounds and their measured relative viability.
Measured parameter: relative viability

Compound	Result
COc1cc(N2CCC(C(N)=O)CC2)ccc1Nc1nc(N)c(Cl)c(Nc2ccccc2S(=O)(=O)C(C)C)n1 [HG-5-88-01] + Cc1nc(NC(=O)N2CCC[C@H]2C(N)=O)sc1-c1ccnc(C(C)(C)C(F)(F)F)c1 [Alpelisib] (partner 2 µM)	0.714
C[C@@H]1CN(CC(=O)Nc2ccc3c(c2)Cc2cccc(-c4cc(=O)cc(N5CCOCC5)o4)c2S3)C[C@H](C)O1 + CC(=O)Nc1cccc(-n2c(=O)n(C3CC3)c(=O)c3c(Nc4ccc(I)cc4F)n(C)c(=O)c(C)c32)c1 [Trametinib] (partner 0.02 µM)	0.584
COc1cc(N2CCC(C(N)=O)CC2)ccc1Nc1nc(N)c(Cl)c(Nc2ccccc2S(=O)(=O)C(C)C)n1 [HG-5-88-01] + CC(=O)Nc1cccc(-n2c(=O)n(C3CC3)c(=O)c3c(Nc4ccc(I)cc4F)n(C)c(=O)c(C)c32)c1 [Trametinib] (partner 0.02 µM)	0.563
C[C@@H]1CN(CC(=O)Nc2ccc3c(c2)Cc2cccc(-c4cc(=O)cc(N5CCOCC5)o4)c2S3)C[C@H](C)O1 + O=C(CCCCCCC(=O)Nc1ccccc1)NO [Vorinostat] (partner 1 µM)	0.634

---

test system: ChaGo-K-1; assay: relative viability (nuclei count vs DMSO), 5 days (fraction); higher = more cells survive; settings: first compound 0.04 µM

Molecule	relative viability
C[C@@H]1CN(CC(=O)Nc2ccc3c(c2)Cc2cccc(-c4cc(=O)cc(N5CCOCC5)o4)c2S3)C[C@H](C)O1 + Nc1nc2[nH]cc(CCc3ccc(C(=O)N[C@@H](CCC(=O)O)C(=O)O)cc3)c2c(=O)[nH]1 [Pemetrexed] (partner 0.2 µM)	0.24
Clc1ccc(Nc2nnc(Cc3ccncc3)c3ccccc23)cc1 [Vatalanib] + N=C(N)NC(=N)NCCc1ccccc1 [Phenformin] (partner 250 µM)	0.453
C[C@@H]1CN(CC(=O)Nc2ccc3c(c2)Cc2cccc(-c4cc(=O)cc(N5CCOCC5)o4)c2S3)C[C@H](C)O1 + N=C(N)NC(=N)NCCc1ccccc1 [Phenformin] (partner 250 µM)	0.48

---

Each entry below carries its recorded relative viability.
system: EMC-BAC-2; assay: relative viability (nuclei count vs DMSO), 5 days (fraction); higher = more cells survive; conditions: first compound 0.04 µM

Molecule	Target or system	relative viability
Clc1ccc(Nc2nnc(Cc3ccncc3)c3ccccc23)cc1 [Vatalanib] + CC(=O)c1c(C)c2cnc(Nc3ccc(N4CCNCC4)cn3)nc2n(C2CCCC2)c1=O [Palbociclib] (partner 0.5 µM)	EMC-BAC-2	0.545
C[C@@H]1CN(CC(=O)Nc2ccc3c(c2)Cc2cccc(-c4cc(=O)cc(N5CCOCC5)o4)c2S3)C[C@H](C)O1 + CC1(C)CCC(c2ccc(Cl)cc2)=C(CN2CCN(c3ccc(C(=O)NS(=O)(=O)c4ccc(N[C@H](CCN5CCOCC5)CSc5ccccc5)c(S(=O)(=O)C(F)(F)F)c4)cc3)CC2)C1 [Navitoclax] (partner 0.5 µM)	EMC-BAC-2	1.16
Clc1ccc(Nc2nnc(Cc3ccncc3)c3ccccc23)cc1 [Vatalanib] + CC1(C)CCC(c2ccc(Cl)cc2)=C(CN2CCN(c3ccc(C(=O)NS(=O)(=O)c4ccc(N[C@H](CCN5CCOCC5)CSc5ccccc5)c(S(=O)(=O)C(F)(F)F)c4)cc3)CC2)C1 [Navitoclax] (partner 0.5 µM)	EMC-BAC-2	1.18
COc1cc(N2CCC(C(N)=O)CC2)ccc1Nc1nc(N)c(Cl)c(Nc2ccccc2S(=O)(=O)C(C)C)n1 [HG-5-88-01] + CCNC(=O)c1noc(-c2cc(C(C)C)c(O)cc2O)c1-c1ccc(CN2CCOCC2)cc1 [Luminespib] (partner 0.01 µM)	EMC-BAC-2	1.09
Clc1ccc(Nc2nnc(Cc3ccncc3)c3ccccc23)cc1 [Vatalanib] + Cc1nc(NC(=O)N2CCC[C@H]2C(N)=O)sc1-c1ccnc(C(C)(C)C(F)(F)F)c1 [Alpelisib] (partner 2 µM)	EMC-BAC-2	0.714
Clc1ccc(Nc2nnc(Cc3ccncc3)c3ccccc23)cc1 [Vatalanib] + Nc1ncn([C@H]2C[C@H](O)[C@@H](CO)O2)c(=O)n1 [Decitabine] (partner 2 µM)	EMC-BAC-2	0.984
Clc1ccc(Nc2nnc(Cc3ccncc3)c3ccccc23)cc1 [Vatalanib] + Cc1nc(Nc2ncc(C(=O)Nc3c(C)cccc3Cl)s2)cc(N2CCN(CCO)CC2)n1 [Dasatinib] (partner 0.075 µM)	EMC-BAC-2	0.329
COc1cc(N2CCC(C(N)=O)CC2)ccc1Nc1nc(N)c(Cl)c(Nc2ccccc2S(=O)(=O)C(C)C)n1 [HG-5-88-01] + COc1cccc2cc(-c3nc([C@H]4CC[C@H](C(=O)O)CC4)n4ncnc(N)c34)[nH]c12 [OSI-027] (partner 0.5 µM)	EMC-BAC-2	0.361
